pIC50: −log10 of the molar value.
Published pIC50 for Casein kinase 2 (Rattus norvegicus, UniProt P19139), assembled from different documents, is shown next.
# pIC50 >= 6 gives met, anything below gives not met

Study these solved cases before continuing.
{"record-smiles": "O=C(O)/C=C/c1cc(Br)c(Br)c(Br)c1Br", "assigned-label": "met"}
{"record-smiles": "Brc1c(Br)c(Br)c2[nH]cnc2c1Br", "assigned-label": "met"}
{"record-smiles": "O=c1c(-c2ccc(O)cc2)coc2cc(O)cc(O)c12", "assigned-label": "not met"}

Prompt: Determine whether measured pIC50 meets or exceeds 6 for O=c1oc2c(O)c(O)cc3c(=O)oc4c(O)c(O)cc1c4c23
Completion: met

Prompt: API: above_or_equal(metric=pIC50, cutoff=6) for item Cc1cc(=O)oc2cc3cc(O)ccc3cc12
Completion: not met

Prompt: Answer whether pIC50 of Cc1cc(=O)oc2cc3c([N+](=O)[O-])c(O)ccc3cc12 is greater than or equal to 6.
Completion: met

Prompt: Threshold query (pIC50 >= 6) on Cc1c(Br)c(=O)oc2c(Br)c(O)ccc12
Completion: met
